Reference source: PubChem BioAssay AID1159580

Assay: chemical genetic growth profiling, strain panel (AID 1159580);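 also: tested at 20 µM; growth read once vehicle control cultures reached saturation at 30 °C; 1 = growth at the plate median or of vehicle wells; lower values mean less growth of the strain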
Conditions: S. cerevisiae deletion strains, growth OD, locus YGL086W, strain mad1, hits give low values
About 2,000 (36%) of roughly 5,500 compounds were called active. About 18% were inconclusive and are not listed. The list shows a part of the results.
The reader will find reported normalized growth values listed item by item below.
Value Type: normalized growth

{"columns": ["Compound", "Reported Measurement"],
 "data": [
  ["NC(=O)N1c2ccccc2CC(=O)c2ccccc21", 0.974],
  ["CC(C)CC1C(=O)N2CCC[C@H]2C2(O)O[C@](NC(=O)C3C=C4c5cccc6[nH]c(Br)c(c56)C[C@H]4N(C)C3)(C(C)C)C(=O)N12 (some centres undefined)", 0.97],
  ["CC[C@@H](CO)NCCN[C@@H](CC)CO", 0.988],
  ["Cc1ccc(C(=O)C(C)CN2CCCCC2)cc1 (centres undefined)", 1.03]
]}

----------
Assay: chemical genetic growth profiling, strain panel (AID 1159580);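 also: tested at 20 µM; growth read once vehicle control cultures reached saturation at 30 °C; 1 = growth at the plate median or of vehicle wells; lower values mean less growth of the strain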
Settings: S. cerevisiae deletion strains, growth OD, locus YDL101C, strain DUN1
About 2,000 (36%) of roughly 5,500 compounds were called active. Roughly 18% stayed inconclusive and do not appear here. Cut-off read from the data, not from the text of the source: active = normalized growth mostly below about 0.91 (no sharp cut-off); inconclusive = no clear call, values can overlap the other calls; inactive = mostly above about 0.92. The list shows a part of the results.
Labels: active, inactive

{"columns": ["Molecule", "Classification"],
 "data": [
  ["COC(=O)COc1ccc(Cl)cc1Cl", "inactive"],
  ["O=C(c1ccccc1)C1CCN(c2ccc(C(F)(F)F)cc2[N+](=O)[O-])CC1", "inactive"],
  ["CC(=O)/C(=C\\Nc1ncccn1)S(=O)(=O)c1ccc(Cl)cc1", "inactive"],
  ["CC(C)(C)C1=NN(c2nc3ccc(Cl)cc3s2)C(=O)C1", "active"]
]}

----------
Assay: chemical genetic growth profiling, strain panel (AID 1159580);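 also: tested at 20 µM; growth read once vehicle control cultures reached saturation at 30 °C; 1 = growth at the plate median or of vehicle wells; lower values mean less growth of the strain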
Settings: S. cerevisiae deletion strains, growth OD, locus YGR078C, strain PAC10, hits give low values
Among all 5,500 compounds or so, about 2,000 (36%) were called active. Inconclusive results (about 18%) are left out. This is one part of the list.

{"columns": ["Molecule", "normalized growth"],
 "data": [
  ["O=c1[nH]c2cccnc2[nH]c1=O", 1.01],
  ["O=C(OCCN1CCCCC1)c1c[nH]c2ccccc12", 1.02],
  ["COc1ccc([C@@H]2CC(=O)c3c(O)cc(O)cc3O2)cc1O", 1.02],
  ["CCCCOc1ccc(C(=O)CCC(=O)O)cc1", 0.939],
  ["Cn1cc[nH]c1=S", 1],
  ["CCc1nc(N)nc(N)c1-c1ccc(Cl)cc1", 1]
]}

----------
Assay: chemical genetic growth profiling, strain panel (AID 1159580);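 also: tested at 20 µM; growth read once vehicle control cultures reached saturation at 30 °C; 1 = growth at the plate median or of vehicle wells; lower values mean less growth of the strain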
Details: S. cerevisiae deletion strains, growth OD, locus YLR384C, strain iki3
Among all 5,500 compounds or so, about 2,000 (36%) were called active. Roughly 18% stayed inconclusive and do not appear here. No stated cut-off is given here; in the data, active means normalized growth mostly below about 0.91 (no sharp cut-off); inconclusive means no clear call, values can overlap the other calls; inactive means mostly above about 0.92. This is one part of the list.
Outcomes: active, inactive

{"columns": ["Molecule", "Classification"],
 "data": [
  ["CC(C)(N=NC(C)(C)C(=N)N)C(=N)N", "inactive"],
  ["C/C=C(/C(=C/C)c1ccc(O)cc1)c1ccc(O)cc1", "inactive"],
  ["CC(=O)CC(=O)CCC(=O)O", "inactive"],
  ["O=C(O)c1cc(=O)c2ccc(Cl)cc2[nH]1", "inactive"],
  ["CCC(C(=O)O)c1ccccc1 (stereo unspecified)", "inactive"],
  ["COc1ccc(C(=O)c2ccccc2O)c(O)c1", "active"]
]}
